Field: MIC. Provide a value for each of the molecules that follow.

State its MIC on Acinetobacter baumannii ATCC 19606: `CC[C@H](C)[C@H](NC(=O)[C@@H]1CCCN1C(=O)[C@@H]1CCCN1C(=O)[C@H](CCCN=C(N)N)NC(=O)[C@H](Cc1ccccc1)NC(=O)[C@@H](N)CCCN=C(N)N)C(=O)N[C@@H](CCCN=C(N)N)C(=O)N[C@@H](CCCN=C(N)N)C(=O)N1CCC[C@H]1C(=O)N1CCC[C@H]1C(=O)N[C@H](C(=O)N[C@@H](CCCN=C(N)N)C(=O)N1CCC[C@H]1C(=O)N1CCC[C@H]1C(=O)N[C@@H](Cc1ccccc1)C(=O)O)[C@@H](C)CC`
> 64 µM

Report MIC for `CC(C)C[C@H](NC(=O)[C@H](C)NC(=O)CNC(=O)[C@H](CC(C)C)NC(=O)[C@H](CC(C)C)NC(=O)[C@H](CCCCN)NC(=O)[C@H](CCCCN)NC(=O)[C@H](CC(C)C)NC(=O)[C@H](CC(C)C)NC(=O)[C@H](CCCCN)NC(=O)[C@H](CC(C)C)NC(=O)[C@H](CC(C)C)NC(=O)[C@@H](N)CCCCN)C(=O)NCC(N)=O` tested on Acinetobacter baumannii ATCC 19606.
1 µM

// map `NC(N)=NCCC[C@H](NC(=O)[C@H](Cc1cnc[nH]1)NC(=O)[C@H](CO)NC(=O)[C@H](CCCN=C(N)N)NC(=O)[C@H](CCCN=C(N)N)NC(=O)[C@H](CS)NC(=O)[C@H](CCCN=C(N)N)NC(=O)[C@H](Cc1cnc[nH]1)NC(=O)[C@H](Cc1cnc[nH]1)NC(=O)[C@@H](N)CO)C(=O)N[C@@H](CS)C(=O)O` to recorded MIC (system: Acinetobacter baumannii ATCC 19606)
> 22.3 µM

Values from DBAASP
